Molecular target: FOXP3/Runx1 heterodimerization (Homo sapiens)
Construct: made in house; host or cells: E. coli BL21 (DE3)
Sequence (Q9BZS1 1-431): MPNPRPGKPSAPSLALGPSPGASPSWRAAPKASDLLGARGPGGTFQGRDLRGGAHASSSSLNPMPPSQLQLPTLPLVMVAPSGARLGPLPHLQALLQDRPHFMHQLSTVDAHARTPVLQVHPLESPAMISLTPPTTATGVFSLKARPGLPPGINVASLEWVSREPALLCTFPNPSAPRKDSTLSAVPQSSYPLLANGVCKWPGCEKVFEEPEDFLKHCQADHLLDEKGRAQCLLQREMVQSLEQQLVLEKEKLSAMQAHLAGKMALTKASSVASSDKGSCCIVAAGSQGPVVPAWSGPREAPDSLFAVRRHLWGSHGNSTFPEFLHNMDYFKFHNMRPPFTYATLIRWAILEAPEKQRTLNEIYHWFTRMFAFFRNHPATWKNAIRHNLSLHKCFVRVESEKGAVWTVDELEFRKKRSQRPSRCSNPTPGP
Experiment: FOXP3/Runx1 heterodimerization inhibition (Alphascreen)
Format: biochemical
Conditions: peptide 100 μM
From the text: Plasmid pET20b FOXP3-His was generated to produce the human FOXP3 tagged with 6 histidines at the C terminus of the protein. […] The eluted proteins were desalted using Hitrap desalting columns (Pharmacia) and analyzed by SDS-PAGE using Coomassie blue (Bio-Safe Coomassie reagent; Bio-Rad, Hercules, Calif.) and by Western blot. […]
readoutKind: Foxp3-Runx1 Inhibition % inhibition (100 μM) (%)

substance	systemTested	numericResult
5 (RAFQSFRKMWPFFAM) [compound 5]	FOXP3/Runx1 heterodimerization (Homo sapiens)	76.0
15 (RDAQSFRKMWPFFAM) [compound 15]	FOXP3/Runx1 heterodimerization (Homo sapiens)	55.6
30 (RDFQSFRKMWAFFAM) [compound 30]	FOXP3/Runx1 heterodimerization (Homo sapiens)	73.9
19 (RDFQAFRKMWPFFAM) [compound 19]	FOXP3/Runx1 heterodimerization (Homo sapiens)	74.7

###

test: Human liver microsomal stability; assay type: in vitro ADME; conditions: human liver microsomes, 20 min; read-out: % Remaining after 20 min
Where a SMILES comes first, the peptide text is derived from it.
Item-by-item account of remaining at 20 min, 1 μM
Reply numerically in %, unit not repeated.

stdin: GET /values?readout=remaining at 20 min, 1 μM&item= CSCC[C@@H]1NC(=O)[C@H](C)NC(=O)[C@H](Cc2ccccc2)NC(=O)[C@H](Cc2ccccc2)NC(=O)[C@@H]2CCCN2C(=O)[C@H](Cc2c[nH]c3ccccc23)NC(=O)[C@H](CCSC)NC(=O)[C@H](CCCCN)NC(=O)[C@H](CCCNC(=N)N)NC(=O)[C@H](Cc2ccccc2)NC(=O)[C@H](C)NC(=O)[C@H](CCC(N)=O)NC(=O)[C@H](Cc2ccccc2)NC(=O)[C@H](C)NC(=O)[C@H](CCCNC(=N)N)NC1=O [compound 50] (cyclo(RAFQAFRKMWPFFAM))
stdout: 6.2

stdin: Fill blank: measured remaining at 20 min, 1 μM of the compound CSCC[C@@H]1NC(=O)[C@H](C)NC(=O)[C@H](Cc2ccccc2)NC(=O)[C@H](Cc2ccccc2)NC(=O)[C@@H]2CCCN2C(=O)[C@H](Cc2c[nH]c3ccccc23)NC(=O)[C@H](CCSC)NC(=O)[C@H](CCCCN)NC(=O)[C@H](CCCNC(=N)N)NC(=O)[C@H](Cc2ccccc2)NC(=O)[C@H](C)NC(=O)[C@H](CCC(N)=O)NC(=O)[C@H](Cc2ccccc2)NC(=O)[C@@H](C)NC(=O)[C@H](CCCNC(=N)N)NCCOCCNC1=O is ____.
stdout: 55.7

###

# inhibition at 2.5 µM annotations
target: FOXP3/Runx1 heterodimerization (Homo sapiens); construct: made in house; host or cells: E. coli BL21 (DE3); test: FOXP3/Runx1 heterodimerization inhibition (Alphascreen); format: biochemical; details: read-out: Foxp3-Runx1 Inhibition % inhibition (2.5 μM)
Where a SMILES comes first, the peptide text is derived from it. [ ]: non-standard residue; d: D form.
Express the result in % but write the number alone.

molecule	inhibition at 2.5 µM (%)
CSCC[C@H](NC(=O)[C@H](C)NC(=O)[C@H](Cc1ccccc1)NC(=O)[C@H](Cc1ccccc1)NC(=O)[C@@H]1CCCN1C(=O)[C@H](Cc1c[nH]c2ccccc12)NC(=O)[C@H](CCSC)NC(=O)[C@H](CCCCN)NC(=O)[C@H](CCCNC(=N)N)NC(=O)[C@H](Cc1ccccc1)NC(=O)[C@H](CO)NC(=O)[C@H](CCC(N)=O)NC(=O)[C@H](Cc1ccccc1)NC(=O)[C@H](C)NC(=O)[C@H](N)CCCNC(=N)N)C(=O)O [compound 46] (H-[dR]AFQSFRKMWPFFAM-OH; N-terminus and C-terminus assumed)	95

stdin: Item under review: CSCC[C@H](NC(=O)[C@H](CCCCN)NC(=O)[C@H](CCCNC(=N)N)NC(=O)[C@H](Cc1ccccc1)NC(=O)[C@H](CO)NC(=O)[C@H](CCC(N)=O)NC(=O)[C@H](Cc1ccccc1)NC(=O)[C@H](C)NC(=O)[C@@H](N)CCCNC(=N)N)C(=O)N[C@@H](Cc1c[nH]c2ccccc12)C(=O)N1CCC[C@H]1C(=O)N[C@@H](Cc1ccccc1)C(=O)N[C@@H](Cc1ccccc1)C(=O)N[C@@H](C)C(=O)N[C@H](CCSC)C(=O)O [compound 47] (H-RAFQSFRKMWPFFA[dM]-OH; N-terminus and C-terminus assumed) . Reported inhibition at 2.5 µM?
stdout: 75

###

The molecules listed here are annotated with their Binding to Foxp3 Ratio binding Peptide/p60 (fold change).
biological target: human FOXP3 (FOXP3-6His) (Homo sapiens, UniProt Q9BZS1); construct: 6xHis (C); made in house; host or cells: E. coli BL21 (DE3); assay: Peptide binding to FOXP3 by surface plasmon resonance (SPR); details: peptides 1-20 μM; ratio to p60 (SEQ ID NO: 1)
Where a SMILES comes first, the peptide text is derived from it. [ ]: non-standard residue; d: D form.
State just the number; it will be interpreted in fold change.

molecule	measurementUnits	numericResult
CSCC[C@H](NC(=O)[C@H](CCCCN)NC(=O)[C@H](CCCNC(=N)N)NC(=O)[C@H](Cc1ccccc1)NC(=O)[C@H](CO)NC(=O)[C@H](CCC(N)=O)NC(=O)[C@H](Cc1ccccc1)NC(=O)[C@H](C)NC(=O)[C@@H](N)CCCNC(=N)N)C(=O)N[C@@H](Cc1c[nH]c2ccccc12)C(=O)N1CCC[C@H]1C(=O)N[C@@H](Cc1ccccc1)C(=O)N[C@@H](Cc1ccccc1)C(=O)N[C@@H](C)C(=O)N[C@H](CCSC)C(=O)O [compound 47] (H-RAFQSFRKMWPFFA[dM]-OH; N-terminus and C-terminus assumed)	fold change	1.7

Please look at the following molecule next.
stdin: What measured Binding to Foxp3 Ratio binding Peptide/p60 (fold change) goes with CSCC[C@H](NC(=O)[C@H](C)NC(=O)[C@H](Cc1ccccc1)NC(=O)[C@H](Cc1ccccc1)NC(=O)[C@@H]1CCCN1C(=O)[C@H](Cc1c[nH]c2ccccc12)NC(=O)[C@H](CCSC)NC(=O)[C@H](CCCCN)NC(=O)[C@H](CCCNC(=N)N)NC(=O)[C@H](Cc1ccccc1)NC(=O)[C@H](CO)NC(=O)[C@H](CCC(N)=O)NC(=O)[C@H](Cc1ccccc1)NC(=O)[C@@H](C)NC(=O)[C@H](CCCNC(=N)N)NC(=O)CNC(C)=O)C(N)=O [compound 14] (Ac-GR[dA]FQSFRKMWPFFAM-NH2; C-terminus assumed) ?
stdout: 3.6

###

Experiment: Mouse liver microsomal stability
Format: in vitro ADME
Conditions: mouse liver microsomes, 60 min; read-out: % Remaining after 60 min
Method: The data collected were analyzed to calculate a half-life (t1/2, min) for tested peptides at a final concentration of 1 μM. Briefly, 5 μL of stock solution of tested peptide (10 mM) were diluted in 495 μL of 1:1 Methanol/Water (final concentration of 100 μM, 50% MeOH). Then, 50 μL of this intermediate solution were diluted in 450 μL of 100 mM potassium phosphate buffer to a concentration of 10 μM (working solution, 5% MeOH). […]
Where a SMILES comes first, the peptide text is derived from it. [ ]: non-standard residue; d: D form.
// reported remaining at 1 h, 1 μM for each item listed
Unit % implied. Number only.

molecule	measurementUnits	remaining at 1 h, 1 μM
CSCC[C@@H]1NC(=O)[C@H](C)NC(=O)[C@H](Cc2ccccc2)NC(=O)[C@H](Cc2ccccc2)NC(=O)[C@@H]2CCCN2C(=O)[C@H](Cc2c[nH]c3ccccc23)NC(=O)[C@H](CCSC)NC(=O)[C@H](CCCCN)NC(=O)[C@H](CCCNC(=N)N)NC(=O)[C@H](Cc2ccccc2)NC(=O)[C@H](C)NC(=O)[C@H](CCC(N)=O)NC(=O)[C@H](Cc2ccccc2)NC(=O)[C@@H](C)NC(=O)[C@H](CCCNC(=N)N)NCCCNC1=O	%	48
CSCC[C@@H]1NC(=O)[C@H](C)NC(=O)[C@H](Cc2ccccc2)NC(=O)[C@H](Cc2ccccc2)NC(=O)[C@@H]2CCCN2C(=O)[C@H](Cc2c[nH]c3ccccc23)NC(=O)[C@H](CCSC)NC(=O)[C@H](CCCCN)NC(=O)[C@H](CCCNC(=N)N)NC(=O)[C@H](Cc2ccccc2)NC(=O)[C@H](C)NC(=O)[C@H](CCC(N)=O)NC(=O)[C@H](Cc2ccccc2)NC(=O)[C@@H](C)NC(=O)[C@H](CCCNC(=N)N)NCCNC(=O)CNC1=O	%	3.7
CSCC[C@@H]1NC(=O)[C@H](C)NC(=O)[C@H](Cc2ccccc2)NC(=O)[C@H](Cc2ccccc2)NC(=O)[C@@H]2CCCN2C(=O)[C@H](Cc2c[nH]c3ccccc23)NC(=O)[C@H](CCSC)NC(=O)[C@H](CCCCN)NC(=O)[C@H](CCCNC(=N)N)NC(=O)[C@H](Cc2ccccc2)NC(=O)[C@H](C)NC(=O)[C@H](CCC(N)=O)NC(=O)[C@H](Cc2ccccc2)NC(=O)[C@@H](C)NC(=O)[C@H](CCCNC(=N)N)NC1=O [compound 51] (cyclo(R[dA]FQAFRKMWPFFAM))	%	47.7

stdin: Requested read-out: remaining at 1 h, 1 μM. Entry: CSCC[C@@H]1NC(=O)[C@H](C)NC(=O)[C@H](Cc2ccccc2)NC(=O)[C@H](Cc2ccccc2)NC(=O)[C@@H]2CCCN2C(=O)[C@H](Cc2c[nH]c3ccccc23)NC(=O)[C@H](CCSC)NC(=O)[C@H](CCCCN)NC(=O)[C@H](CCCNC(=N)N)NC(=O)[C@H](Cc2ccccc2)NC(=O)[C@H](C)NC(=O)[C@H](CCC(N)=O)NC(=O)[C@H](Cc2ccccc2)NC(=O)[C@@H](C)NC(=O)[C@H](CCCNC(=N)N)NCCOCCNC1=O
stdout: 30.1
